# Assay Target: Cin5 (UniProt P40917)
# Sequence: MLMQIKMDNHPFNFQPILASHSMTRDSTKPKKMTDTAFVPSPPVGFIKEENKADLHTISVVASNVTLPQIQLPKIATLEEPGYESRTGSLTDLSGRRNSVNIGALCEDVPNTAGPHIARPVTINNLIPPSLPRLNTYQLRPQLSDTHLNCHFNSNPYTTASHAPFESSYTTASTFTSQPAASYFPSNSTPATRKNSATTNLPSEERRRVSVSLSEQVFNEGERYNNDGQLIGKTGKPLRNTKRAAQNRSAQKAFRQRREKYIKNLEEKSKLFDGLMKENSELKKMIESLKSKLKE
# Assay Comment: PBM E-score (8-mer binding enrichment) (E-score (-0.5 to 0.5)); higher = stronger / more preferred TF binding
# Details: protein concentration: 100 nM; construct: GST-full length
Over roughly 33,000 sequences, “E-score (-0.5 to 0.5)” has its median near -0.0059; the highest 2% begin near 0.26. This excerpt belongs to a sample that is enriched for the highest values.
Overview of recorded PBM E-score for various sequences

>>> df
   construct_sequence           assay_target  attribute_measured  assay_value
0            ATCCGTTC  Cin5 (UniProt P40917)         PBM E-score       0.0322

Identify PBM E-score associated with the sequence ACGAGAGA -0.0604

Identify PBM E-score associated with the sequence ATGTCATC 0.142

Identify PBM E-score associated with the sequence CACGATAG 0.139

Identify PBM E-score associated with the sequence ATTTACGC 0.0814

Identify PBM E-score associated with the sequence GTCCGTTA 0.12

---

# Assay Target: Cin5 (UniProt P40917)
# Sequence: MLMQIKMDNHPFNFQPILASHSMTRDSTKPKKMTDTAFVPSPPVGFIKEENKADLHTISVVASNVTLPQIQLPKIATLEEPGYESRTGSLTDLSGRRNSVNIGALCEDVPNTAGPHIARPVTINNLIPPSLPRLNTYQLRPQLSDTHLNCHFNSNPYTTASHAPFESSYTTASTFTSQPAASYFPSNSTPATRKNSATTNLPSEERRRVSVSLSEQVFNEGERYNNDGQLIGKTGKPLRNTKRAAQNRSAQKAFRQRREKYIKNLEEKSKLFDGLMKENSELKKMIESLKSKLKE
# Assay Comment: PBM E-score (8-mer binding enrichment) (E-score (-0.5 to 0.5)); higher = stronger / more preferred TF binding
# Details: protein concentration: 100 nM; construct: GST-full length
Over roughly 33,000 sequences, “E-score (-0.5 to 0.5)” has its median near -0.0059; the highest 2% begin near 0.26. The full list was thinned out, with the highest values kept by preference.
Attribute Measured: PBM E-score

For orientation, consider the following solved cases.
In [3]: df
Out[3]:
   construct_sequence  attribute_measured  assay_value
0            GTATTATA         PBM E-score        0.267
1            CGCCCCAC         PBM E-score        0.131

Identify PBM E-score associated with the sequence ATATTAGA 0.159

Identify PBM E-score associated with the sequence AGCCCCAG -0.0735

Identify PBM E-score associated with the sequence CATTCTGG 0.0333

Identify PBM E-score associated with the sequence ACCAGGGG -0.265

Identify PBM E-score associated with the sequence AAATTCTC -0.0624

Identify PBM E-score associated with the sequence ACAACCGT -0.172

Identify PBM E-score associated with the sequence GCATTACA 0.167

Identify PBM E-score associated with the sequence AAGCTACC 0.106

Identify PBM E-score associated with the sequence GTATTACA 0.34

Identify PBM E-score associated with the sequence ACAACTTA 0.184

Identify PBM E-score associated with the sequence ACAACTTG 0.0528

Identify PBM E-score associated with the sequence GTATTGTA 0.274
